System: NOMO1
PROTOCOL DETAILS: cell viability relative to DMSO control; higher = less cytotoxic
TEST PARAMETERS: RPMI 5 mM glucose + 10% dialyzed FBS; 48 h; 46.1 µM
Criterion: cell viability strictly under 70%. Met: true. Not met: false.

- INPUT SMILES: "Cc1n[nH]c(C)c1Cc1sc2c(c1C(=O)N1C[C@H](O)CO1)c(=O)n(C)c(=O)n2CC(C)C"
  CLASS ASSIGNMENT: "false"
- INPUT SMILES: "N[C@@H](Cc1cc(I)c(Oc2cc(I)c(O)c(I)c2)c(I)c1)C(=O)O"
  CLASS ASSIGNMENT: "false"
- INPUT SMILES: "COc1cc([C@@H]2c3cc4c(cc3[C@@H](O[C@@H]3O[C@@H]5CO[C@@H](C)O[C@H]5[C@H](O)[C@H]3O)[C@H]3COC(=O)[C@H]23)OCO4)cc(OC)c1O"
  CLASS ASSIGNMENT: "true"
- INPUT SMILES: "CCOC\\1=C(/C(=O)NC2=CC=C(OC3=C(Cl)C(=NC=C3)N)C(=C2)F)C(=O)N(\\C=C1)C4=CC=C(F)C=C4"
  CLASS ASSIGNMENT: "true"
